Data credit: ChEMBL document CHEMBL4417631

pIC50 for assorted compounds
Target: Interleukin-23 receptor (Homo sapiens, UniProt Q5VWK5)
Sequence (Q5VWK5 whole entry): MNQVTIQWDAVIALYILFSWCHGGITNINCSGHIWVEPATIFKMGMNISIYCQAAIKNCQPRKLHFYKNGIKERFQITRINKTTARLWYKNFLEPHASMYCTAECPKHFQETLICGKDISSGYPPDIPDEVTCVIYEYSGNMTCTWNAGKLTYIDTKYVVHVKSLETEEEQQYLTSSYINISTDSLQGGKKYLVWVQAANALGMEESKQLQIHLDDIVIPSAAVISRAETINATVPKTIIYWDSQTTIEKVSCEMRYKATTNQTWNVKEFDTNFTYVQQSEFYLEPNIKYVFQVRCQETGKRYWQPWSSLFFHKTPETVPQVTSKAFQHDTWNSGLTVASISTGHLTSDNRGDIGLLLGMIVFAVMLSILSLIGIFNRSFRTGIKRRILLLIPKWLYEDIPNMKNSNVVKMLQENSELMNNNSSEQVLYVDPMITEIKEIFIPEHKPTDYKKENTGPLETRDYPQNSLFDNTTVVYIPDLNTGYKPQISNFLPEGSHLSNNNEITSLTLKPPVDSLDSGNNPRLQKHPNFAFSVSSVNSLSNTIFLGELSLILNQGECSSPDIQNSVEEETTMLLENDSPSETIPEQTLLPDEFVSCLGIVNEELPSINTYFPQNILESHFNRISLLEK
Assay: Inhibition of interleukin-23 receptor in human DB cells assessed as reduction in IL-23-stimulated STAT3 phosphorylation incubated for 30 mins by HTRF assay
Assay type: cell-based
pIC50: −log10 of the molar value.

Use these answered entries as a reference point.
{"inputSmiles": "CC(=O)N[C@@H](CCC(=O)O)C(=O)N[C@H]1CCSC[C@@H](C(=O)N[C@@H](Cc2ccc(OCCN)cc2)C(=O)N[C@@H](Cc2ccc3ccccc3c2)C(=O)N[C@@](C)(CCCCN)C(=O)N[C@@H](CCC(=O)O)C(=O)N[C@@H](CC(N)=O)C(=O)N[C@@H](CC(N)=O)C(N)=O)NC(=O)[C@H](CCC(N)=O)NC(=O)[C@H](Cc2c[nH]c3ccccc23)NC(=O)[C@H]([C@@H](C)O)NC(=O)[C@H](CCC(N)=O)NC1=O", "resultValue": "> 8.00"}
{"inputSmiles": "CCCCCCCC[C@H](NC(=O)[C@H](Cc1c[nH]c2ccccc12)NC(=O)[C@H](Cc1ccc(O)cc1)NC(=O)[C@H](CS)NC(=O)[C@H](CCC(N)=O)NC(=O)[C@H](Cc1c[nH]c2ccccc12)NC(=O)[C@@H](NC(=O)[C@H](CCC(N)=O)NC(=O)[C@H](CS)NC(C)=O)[C@@H](C)O)C(=O)N[C@@H](CCC(=O)O)C(=O)N[C@@H](CC(N)=O)C(=O)NCC(N)=O", "resultValue": 7.12}
{"inputSmiles": "CC(=O)NCCCC[C@H](NC(=O)[C@@](C)(NC(=O)[C@H](Cc1ccc2ccccc2c1)NC(=O)[C@H](Cc1ccc(OCCN)cc1)NC(=O)[C@@H]1CSCC[C@H](NC(C)=O)C(=O)N[C@@H](CCC(N)=O)C(=O)N[C@@H]([C@@H](C)O)C(=O)N[C@@H](Cc2c[nH]c3ccccc23)C(=O)N[C@@H](CCC(N)=O)C(=O)N1)C(C)C)C(=O)N[C@@H](CC(N)=O)C(=O)NCC(N)=O", "resultValue": "> 8.00"}
{"inputSmiles": "CC(=O)N[C@H](C(=O)N[C@@H](CCC(N)=O)C(=O)N[C@H](C(=O)N[C@@H](Cc1c[nH]c2ccccc12)C(=O)N[C@@H](CCC(N)=O)C(=O)N[C@H](C(=O)N[C@@H](Cc1ccc(O)cc1)C(=O)N[C@@H](Cc1ccc2ccccc2c1)C(=O)N[C@@](C)(CCCCN)C(=O)N[C@@H](CCC(=O)O)C(=O)N[C@@H](CC(N)=O)C(=O)NCC(N)=O)C(C)(C)S)[C@@H](C)O)C(C)(C)S", "resultValue": "> 8.00"}
{"inputSmiles": "CC(=O)NCCCC[C@H](NC(=O)C(C)(C)NC(=O)[C@H](Cc1ccc2ccccc2c1)NC(=O)[C@H](Cc1ccc(OCCN)cc1)NC(=O)[C@@H](NC(=O)[C@H](CCC(N)=O)NC(=O)[C@H](Cc1c[nH]c2ccccc12)NC(=O)[C@@H](NC(=O)[C@H](CCC(N)=O)NC(=O)[C@@H](NC(C)=O)C(C)(C)S)[C@@H](C)O)C(C)(C)S)C(=O)N[C@@H](CC(N)=O)C(=O)N[C@@H](CCC(N)=O)C(N)=O", "resultValue": "> 8.00"}

Here is another compound to look at.
Summary line: CC(=O)N[C@H]1CCSC[C@@H](C(=O)N[C@@H](Cc2ccc(OCCN)cc2)C(=O)N[C@@H](Cc2c[nH]c3ccc(O)cc23)C(=O)NC(C)(C)C(=O)N[C@@H](CCC(N)=O)C(=O)N[C@@H](CC(N)=O)C(=O)NCC(N)=O)NC(=O)[C@H](CCC(N)=O)NC(=O)[C@H](Cc2c[nH]c3ccccc23)NC(=O)[C@H]([C@@H](C)O)NC(=O)[C@H](CCC(N)=O)NC1=O , Interleukin-23 receptor (Homo sapiens, UniProt Q5VWK5), reported pIC50 = 7.60 to 8.00

====

Assay: Half life in simulated gastric fluid at 20 uM by LC-MS/MS analysis
Type: ADME
half-life at 20 µM for assorted compounds

Item: CC(=O)N[C@H]1CCSC[C@@H](C(=O)N[C@@H](Cc2ccc(OCCN)cc2)C(=O)N[C@@H](Cc2ccc3ccccc3c2)C(=O)NC2(C(=O)N[C@@H](CCC(=O)O)C(=O)N[C@@H](CC(N)=O)C(=O)N[C@@H](CC(N)=O)C(N)=O)CCCC2)NC(=O)[C@H](CCC(N)=O)NC(=O)[C@H](Cc2c[nH]c3ccccc23)NC(=O)[C@H]([C@@H](C)O)NC(=O)[C@H](CCC(N)=O)NC1=O | half-life at 20 µM: > 6 h

Item: CC(=O)NCCCC[C@H](NC(=O)C(C)(C)NC(=O)[C@H](Cc1ccc2ccccc2c1)NC(=O)[C@H](Cc1ccc(OCCN)cc1)NC(=O)[C@@H](NC(=O)[C@H](CCC(N)=O)NC(=O)[C@H](Cc1c[nH]c2ccccc12)NC(=O)[C@@H](NC(=O)[C@H](CC(N)=O)NC(=O)[C@@H](NC(C)=O)C(C)(C)S)[C@@H](C)O)C(C)(C)S)C(=O)N[C@@H](CC(N)=O)C(=O)NCCC(N)=O | half-life at 20 µM: > 6 h

====

Assay: Half life in simulated intestinal fluid at 20 uM by LC-MS/MS analysis
Format: ADME
half-life at 20 µM for assorted compounds

{"inputSmiles": "CC(=O)N[C@H](C(=O)N[C@@H](CC(N)=O)C(=O)N[C@H](C(=O)N[C@@H](Cc1c[nH]c2ccccc12)C(=O)N[C@@H](CCC(N)=O)C(=O)N[C@H](C(=O)N[C@@H](Cc1ccc(OCCN)cc1)C(=O)N[C@@H](Cc1ccc2ccccc2c1)C(=O)N[C@@H](CCC(C)C)C(=O)N[C@@H](CCC(=O)O)C(=O)N[C@@H](CC(N)=O)C(=O)N[C@@H](C)C(N)=O)C(C)(C)S)[C@@H](C)O)C(C)(C)S", "half-life at 20 µM": "1 to 2 h"}
{"inputSmiles": "CC(=O)N[C@H](C(=O)N[C@@H](CCC(N)=O)C(=O)N[C@H](C(=O)N[C@@H](Cc1c[nH]c2ccccc12)C(=O)N[C@@H](CCC(N)=O)C(=O)N[C@H](C(=O)N[C@@H](Cc1ccc(O)cc1)C(=O)N[C@@H](Cc1c[nH]c2ccccc12)C(=O)N[C@H](CC(N)=O)C(=O)N[C@@H](CCC(=O)O)C(=O)N[C@@H](CC(N)=O)C(=O)NCC(N)=O)C(C)(C)S)[C@@H](C)O)C(C)(C)S", "half-life at 20 µM": "3 to 6 h"}

Here is another compound to look at.
Item: CC(=O)NCCCC[C@H](NC(=O)[C@](C)(CCCCN)NC(=O)[C@H](Cc1ccc2ccccc2c1)NC(=O)[C@H](Cc1ccc2ccccc2c1)NC(=O)[C@@H]1CSCC[C@H](NC(C)=O)C(=O)N[C@@H](CCC(N)=O)C(=O)N[C@@H]([C@@H](C)O)C(=O)N[C@@H](Cc2c[nH]c3ccccc23)C(=O)N[C@@H](CCC(N)=O)C(=O)N1)C(=O)N[C@@H](CC(N)=O)C(=O)NCC(N)=O | half-life at 20 µM: 3 to 6 h

====

Test: Half life in simulated gastric fluid at 20 uM by LC-MS/MS analysis
Format: ADME
half-life at 20 µM for assorted compounds

Use these answered entries as a reference point.
{"inputSmiles": "CC(=O)NCCCC[C@H](NC(=O)C(C)(C)NC(=O)[C@H](Cc1ccc2ccccc2c1)NC(=O)[C@H](Cc1ccc(OCCN)cc1)NC(=O)[C@@H](NC(=O)[C@H](CCC(N)=O)NC(=O)[C@H](Cc1c[nH]c2ccccc12)NC(=O)[C@@H](NC(=O)[C@H](CC(N)=O)NC(=O)[C@@H](NC(C)=O)C(C)(C)S)[C@@H](C)O)C(C)(C)S)C(=O)N[C@@H](CC(N)=O)C(=O)N[C@@H](C)C(N)=O", "observable": "half-life at 20 µM", "resultValue": "> 6 h"}
{"inputSmiles": "CC(=O)N[C@H]1CCSC[C@@H](C(=O)N[C@@H](Cc2ccc(OCCN)cc2)C(=O)N[C@@H](Cc2c[nH]c3ccccc23)C(=O)N[C@@H](CCC(C)C)C(=O)N[C@@H](CCC(=O)O)C(=O)N[C@@H](CC(N)=O)C(=O)NCC(N)=O)NC(=O)[C@H](CCC(N)=O)NC(=O)[C@H](Cc2c[nH]c3ccccc23)NC(=O)[C@H]([C@@H](C)O)NC(=O)[C@H](CCC(N)=O)NC1=O", "observable": "half-life at 20 µM", "resultValue": "< 1 h"}
{"inputSmiles": "COc1ccc(C[C@H](NC(=O)[C@@H](NC(=O)[C@H](CCC(N)=O)NC(=O)[C@H](Cc2c[nH]c3ccccc23)NC(=O)[C@@H](NC(=O)[C@H](CC(N)=O)NC(=O)[C@@H](NC(C)=O)C(C)(C)S)[C@@H](C)O)C(C)(C)S)C(=O)N[C@@H](Cc2ccc3ccccc3c2)C(=O)NC(C)(C)C(=O)N[C@@H](CCCCNC(C)=O)C(=O)N[C@@H](CC(N)=O)C(=O)N[C@@H](CC(N)=O)C(N)=O)cc1", "observable": "half-life at 20 µM", "resultValue": "> 6 h"}
{"inputSmiles": "CC(=O)NCCCC[C@](C)(NC(=O)[C@H](Cc1ccc2ccccc2c1)NC(=O)[C@H](Cc1ccc(OCCNC(C)=O)cc1)NC(=O)[C@@H](NC(=O)[C@H](CCC(N)=O)NC(=O)[C@H](Cc1c[nH]c2ccccc12)NC(=O)[C@@H](NC(=O)[C@](C)(CCCNC(C)=O)NC(=O)[C@@H](NC(C)=O)C(C)(C)S)[C@@H](C)O)C(C)(C)S)C(=O)N[C@@H](CCC(=O)O)C(=O)N[C@@H](CC(N)=O)C(=O)NCC(N)=O", "observable": "half-life at 20 µM", "resultValue": "3 to 6 h"}

Here is another compound to look at.
Item: CC(=O)N[C@H](C(=O)N[C@@H](CCC(N)=O)C(=O)N[C@H](C(=O)N[C@@H](Cc1c[nH]c2ccccc12)C(=O)N[C@@H](CCC(N)=O)C(=O)N[C@H](C(=O)N[C@@H](Cc1ccc(OCCN)cc1)C(=O)N[C@@H](Cc1ccc2ccccc2c1)C(=O)N[C@@](C)(CCCCN)C(=O)N[C@@H](CCC(=O)O)C(=O)N[C@@H](CC(N)=O)C(=O)N[C@@H](C)C(N)=O)C(C)(C)S)[C@@H](C)O)C(C)(C)S | half-life at 20 µM: > 6 h
